Reference source for all entries: patent US20260365628A1

Target: hTSHR (Homo sapiens)
Construct: expressed in transfected cells
Sequence (P16473 21-764): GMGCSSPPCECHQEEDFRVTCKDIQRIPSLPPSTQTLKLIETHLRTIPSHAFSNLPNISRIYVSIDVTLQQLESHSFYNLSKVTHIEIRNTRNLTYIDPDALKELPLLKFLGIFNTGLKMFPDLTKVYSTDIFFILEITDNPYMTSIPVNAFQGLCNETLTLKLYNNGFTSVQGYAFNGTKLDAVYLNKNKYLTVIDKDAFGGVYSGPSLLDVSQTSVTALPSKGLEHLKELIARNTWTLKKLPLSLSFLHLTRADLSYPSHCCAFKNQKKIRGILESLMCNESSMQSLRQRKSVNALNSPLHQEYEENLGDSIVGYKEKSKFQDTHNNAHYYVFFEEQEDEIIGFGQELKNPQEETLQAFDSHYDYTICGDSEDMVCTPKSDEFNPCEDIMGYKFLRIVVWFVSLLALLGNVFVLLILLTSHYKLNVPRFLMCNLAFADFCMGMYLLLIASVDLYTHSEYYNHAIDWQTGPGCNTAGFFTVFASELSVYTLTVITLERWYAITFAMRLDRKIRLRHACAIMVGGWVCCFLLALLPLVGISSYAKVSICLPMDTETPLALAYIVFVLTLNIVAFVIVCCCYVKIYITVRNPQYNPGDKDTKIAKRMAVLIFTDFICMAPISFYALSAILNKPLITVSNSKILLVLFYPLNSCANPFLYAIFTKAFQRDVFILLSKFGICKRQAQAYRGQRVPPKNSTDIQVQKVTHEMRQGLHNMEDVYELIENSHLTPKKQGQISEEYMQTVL
Experiment: hTSHR TR-FRET cAMP Assay (inhibition of M22-stimulated cAMP production)
Assay type: cell-based
Conditions: Expi293F Inducible cells stably expressing hTSHR; cAMP HTRF; stimulated with EC80 of anti-TSHR antibody M22; 15 min compound preincubation, 30 min at 37° C.; read-out: Activity (IC50 bins)
QUANTITY MEASURED: IC50

| MOLECULE | ASSAY SYSTEM | IC50 |
| --- | --- | --- |
| C[C@H]1Oc2cc(NC(=O)NC3(C)CC(F)(F)C3)ccc2N([C@@H](C)c2ccccc2)C1=O | hTSHR (Homo sapiens) | 100 to 1000 nM |
| CC(C)(C)NC(=O)Nc1ccc2c(c1)CNC(=O)N2Cc1ccccc1 | hTSHR (Homo sapiens) | > 1000 nM |
| Cc1nc2cc(NC(=O)NC(C)(C)C)ccc2n([C@@H](C)c2ccccc2)c1=O | hTSHR (Homo sapiens) | 100 to 1000 nM |
| C[C@@H](c1cccc(CCOC(F)(F)F)c1)n1c(=O)cnc2cc(NC(=O)NC(C)(C)C)ccc21 | hTSHR (Homo sapiens) | 100 to 1000 nM |
| C[C@H]1Oc2nc(NC(=O)NC(C)(C)C)c(C#N)cc2N(Cc2ccccc2)C1=O | hTSHR (Homo sapiens) | 100 to 1000 nM |
| CC(C)(C)NC(=O)Nc1ccc2c(c1)C(C)(C)CC(=O)N2Cc1ccccc1 | hTSHR (Homo sapiens) | > 1000 nM |
| C[C@H](c1ccccc1)N1C(=O)N(C)Cc2cc(NC(=O)NC(C)(C)C)ccc21 [Example 45A] | hTSHR (Homo sapiens) | > 1000 nM |

## Input Give the value of IC50 reported for the following: CC(C)(C)NC(=O)Nc1ccc2c(c1)CCC(=O)N2Cc1ccc(C#N)cc1
## Output > 1000 nM
